Data provenance is DBAASP.

# System: Escherichia coli BW25113
measured metric: MIC (µM)
Reply with just the number (in µM).

Data request: For Escherichia coli BW25113, provide MIC of `CC[C@H](C)[C@H](NC(=O)[C@@H]1CCCN1C(=O)[C@H](Cc1ccccc1)NC(=O)[C@H](CCCN=C(N)N)NC(=O)[C@H](Cc1ccccc1)NC(=O)[C@@H](N)CCCN=C(N)N)C(=O)N[C@@H](CCCN=C(N)N)C(=O)N[C@@H](CCCN=C(N)N)C(=O)N1CCC[C@H]1C(=O)N1CCC[C@H]1C(=O)N[C@H](C(=O)N[C@@H](CCCN=C(N)N)C(=O)N1CCC[C@H]1C(=O)N1CCC[C@H]1C(=O)N[C@@H](Cc1ccccc1)C(=O)N[C@@H](Cc1ccc(O)cc1)C(=O)N1CCC[C@H]1C(=O)O)[C@@H](C)CC` please.
Data returned: 8
